Exercise: state measured EC50 for each of the compounds provided.
Target: human TGR5 (Homo sapiens, UniProt Q8TDU6)
Construct: expressed in transfected cells; host or cells: HEK293
Sequence (Q8TDU6 1-330): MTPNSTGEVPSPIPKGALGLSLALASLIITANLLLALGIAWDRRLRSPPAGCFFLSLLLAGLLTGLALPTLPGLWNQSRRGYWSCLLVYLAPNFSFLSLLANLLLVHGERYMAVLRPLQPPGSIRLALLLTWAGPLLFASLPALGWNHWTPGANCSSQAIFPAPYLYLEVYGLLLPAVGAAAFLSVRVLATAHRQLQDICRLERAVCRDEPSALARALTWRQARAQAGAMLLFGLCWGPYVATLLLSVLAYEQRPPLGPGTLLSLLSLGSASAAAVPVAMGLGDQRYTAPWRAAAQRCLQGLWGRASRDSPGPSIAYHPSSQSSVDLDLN
Assay: Cell-based TGR5 assay (cAMP generation, HTRF)
Details: HEK293 cells stably transfected with human TGR5; cAMP by HTRF; 30 minutes at 37° C.; read-out: pEC50 Human TGR5 (converted)

In plain terms, CC(CCCC(=O)N(C)C[C@H](O)[C@@H](O)[C@H](O)[C@H](O)CO)c1cc(Cl)c(COC2(c3cnccc3-c3ccccc3OC3CC3)CC2)cc1Cl (stereo partly drawn) has a documented EC50 of < 100 nM

In plain terms, Cc1cc(CNC2(c3cnccc3-c3ccccc3OC3CC3)CC2)c(C)cc1CCCCC(=O)NC[C@H](O)[C@@H](O)[C@H](O)[C@H](O)CO has a documented EC50 of 126 to 1000 nM

In plain terms, O=C([C@@H](O)[C@@H](O)[C@H](O)[C@@H](O)CO)N(CCCCO)CCCSc1ccc(Cl)c(CNC2(c3cnccc3-c3ccccc3OC3CC3)CC2)c1 has a documented EC50 of < 100 nM

In plain terms, Cc1ccc(SCCCN(CCCCO)C(=O)[C@@H](O)[C@@H](O)[C@H](O)[C@@H](O)CO)cc1CNC1(c2cnccc2-c2ccccc2OC2CC2)CC1 has a documented EC50 of 126 to 1000 nM

In plain terms, Cc1ccc(C(C)CCCNC(=O)NC[C@H](O)[C@@H](O)[C@H](O)[C@H](O)CO)cc1CNC1(c2cnccc2-c2ccccc2OC2CC2)CC1 (stereo partly drawn) has a documented EC50 of < 100 nM

In plain terms, Cc1ccc(C(C)CCCC(=O)N(CCO)C[C@H](O)[C@@H](O)[C@H](O)[C@H](O)CO)cc1CNC1(c2cnccc2-c2ccccc2OC2CC2)CC1 (stereo partly drawn) has a documented EC50 of < 100 nM
